B1: SOAT1 (parent)
chain: KSAAMLAVFAVSAVVHEYALAVCL

- Variants of: B1
- ASSAY PROTOCOL: protein stability index of a GFP-peptide fusion (GPS, HEK-293T) (PSI 1-6); higher = more stable;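 note: lentivirally expressed fusions sorted by FACS into six bins by GFP to DsRed ratio, PSI derived from sequencing read proportions per bin multiplied by bin number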
- MEASUREMENT CONDITIONS: c terminus: a fixed tail appended
Parameter threshold = 3. Response is TRUE when protein stability index meets or exceeds it, else FALSE.

Please indicate if the recorded protein stability index for K1T meets or exceeds 3.
TRUE

Does S2I have a reported protein stability index of at least 3?
FALSE

Entry M5C : is its protein stability index no less than 3?
TRUE

Please tell me: is the variant E17F at or over 3 in terms of protein stability index?
FALSE

Does the reported protein stability index for A7L fall at or above the 3 mark?
TRUE

Answer whether protein stability index of K1H is greater than or equal to 3.
FALSE

Assess whether reported protein stability index for L6R sits at 3 or higher.
FALSE

Please check the record K1M and state if its protein stability index is at or above 3.
FALSE

Is protein stability index at least 3? Consider V22I
TRUE

Could you please find out whether L6F has protein stability index that meets 3 or exceeds it?
FALSE

Threshold query (protein stability index >= 3) on A3I
TRUE

Quick check: does K1G have protein stability index greater than or equal to 3?
TRUE

Would you say A3N shows protein stability index at minimum 3?
FALSE

hey, is protein stability index for this one >= 3? L24K
TRUE

hey, is protein stability index for this one >= 3? M5F
FALSE

In plain terms: is recorded protein stability index at least 3 for A4D ?
FALSE

Dear colleague, could you confirm whether A3G has protein stability index at or above 3?
FALSE

Hello, I need to know if Y18Q has measured protein stability index not below 3. Thanks!
FALSE

Hi, just wondering whether A4Y shows protein stability index of 3 or higher.
FALSE

Could you verify whether the entry V14D shows protein stability index of no less than 3?
TRUE

Item A3D with protein stability index of 3 or above?
FALSE

Quick check: does A19R have protein stability index greater than or equal to 3?
TRUE

Confirm if protein stability index reported for the variant L20Q is 3 or above.
TRUE

State whether the measured protein stability index reaches 3, counting equality as reaching it, for L24N
FALSE

Tell me whether protein stability index is at least 3 here: S12P
FALSE

State whether the measured protein stability index reaches 3, counting equality as reaching it, for K1R
TRUE
